test: chemical genetic growth profiling, strain panel (AID 1159580);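 also: tested at 20 µM; growth read once vehicle control cultures reached saturation at 30 °C; 1 = growth at the plate median or of vehicle wells; lower values mean less growth of the strain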; details: S. cerevisiae deletion strains, growth OD, locus YDR101C, strain arx1
Among all 5,500 compounds or so, about 2,000 (36%) were called active. Another 18% or so got no clear call; they are omitted. Rule as the data show it: active = normalized growth mostly below about 0.91 (no sharp cut-off); inconclusive = no clear call, values can overlap the other calls; inactive = mostly above about 0.92. The list shows a part of the results.
Classes to choose from: 1 = active, -1 = inactive

Example entries and their recorded answers appear below.
S=c1[nH]c2ccccc2s1 = -1
NC(=O)c1cc[n+](CC2=C(C(=O)O)N3C(=O)C(NC(=O)C(c4ccccc4)S(=O)(=O)[O-])C3SC2)cc1 (stereo not drawn) = -1
COc1cc(C)c2c(c1C=O)Oc1c(c(C)c(O)c3c1C(O)OC3=O)OC2=O (stereo not drawn) = -1

Ask: Each compound tested received a call. Report the one for COc1ccc2c(c1O)-c1c(OC)c(OC)cc3c1[C@H](C2)N(C)CC3 .
Reply: -1

Ask: Each compound tested received a call. Report the one for C=CCN1CC[C@]23c4c5ccc(O)c4OC2C(=O)CC[C@@]3(O)[C@H]1C5 (stereo partly drawn) .
Reply: -1

Ask: Each compound tested received a call. Report the one for CCOC(N)=O .
Reply: -1

Ask: Each compound tested received a call. Report the one for COP(=S)(OC)Oc1ccc(SC)c(C)c1 .
Reply: -1

Ask: Each compound tested received a call. Report the one for CC(=O)N[C@@H]1[C@@H](C(O)[C@H](O)CO)O[C@](O)(C(=O)O)C[C@@H]1O (stereo partly drawn) .
Reply: -1

Ask: Each compound tested received a call. Report the one for Nc1nccs1 .
Reply: -1

Ask: Each compound tested received a call. Report the one for COc1c(C(=O)O)ccc2c1CCC(C)(C)O2 .
Reply: -1

Ask: Each compound tested received a call. Report the one for CN1CCc2cccc3c2C1Cc1ccc(O)c(O)c1-3 (stereo not drawn) .
Reply: -1
